System: AA1029
MEASUREMENT_NOTES: qHTS profiling for inhibitors of Plasmodium falciparum proliferation (AID 504749); also: nearly all actives have a fitted effect of over 60% in size
RUN_PARAMETERS: P. falciparum in erythrocytes, SYBR Green DNA, 72 h; series mostly up to 28.7 µM
Results filed as inconclusive are left out. Activity calls are given as the source filed them. Calls follow the shape of the dose curve; as a rule, active = well fitted inhibition curve with a large enough effect; inconclusive = small, poorly fitted or top-dose-only effect; inactive = flat fitted curve, though single readings scatter.
Outcomes: YES = active, NO = inactive

[[record]]
molecule = "NC(=S)NS(=O)(=O)c1ccc(N)cc1"
tgt = "AA1029"
discrete_label = "NO"

[[record]]
molecule = "CC1CCC(NC(=O)N(CCCl)N=O)CC1 (stereo unspecified)"
tgt = "AA1029"
discrete_label = "NO"

[[record]]
molecule = "Cc1nc(NS(=O)(=O)c2ccc(N)cc2)nc(C)c1Br"
tgt = "AA1029"
discrete_label = "NO"

[[record]]
molecule = "CCOC(C)OCC"
tgt = "AA1029"
discrete_label = "NO"

[[record]]
molecule = "O=C(O)c1ccc(NC(=O)[C@H](Cc2ccc(O)cc2)NC(=O)c2ccccc2)cc1"
tgt = "AA1029"
discrete_label = "NO"

[[record]]
molecule = "C=CCCCCCCCCC(=O)OC"
tgt = "AA1029"
discrete_label = "NO"

[[record]]
molecule = "CCC(O)c1ccccc1 (stereo unspecified)"
tgt = "AA1029"
discrete_label = "NO"

[[record]]
molecule = "C[C@H]1O[C@@H](O[C@H]2[C@@H](O)C[C@H](O[C@H]3[C@@H](O)C[C@H](O[C@H]4CC[C@@]5(C)[C@H](CC[C@@H]6[C@@H]5C[C@@H](O)[C@]5(C)[C@@H](C7=CC(=O)OC7)CC[C@]65O)C4)O[C@@H]3C)O[C@@H]2C)C[C@H](O)[C@@H]1O"
tgt = "AA1029"
discrete_label = "NO"

[[record]]
molecule = "C=CCOc1ccc(CC(=O)O)cc1Cl"
tgt = "AA1029"
discrete_label = "NO"

[[record]]
molecule = "CC1=CC(=C(c2ccc(N)cc2)c2ccc(N)cc2)C=CC1=N"
tgt = "AA1029"
discrete_label = "YES"

[[record]]
molecule = "Oc1cc(O)cc(O)c1"
tgt = "AA1029"
discrete_label = "NO"


====

TGT: Ubiquitin carboxyl-terminal hydrolase 1 (Homo sapiens)
MEASUREMENT_NOTES: Inhibitors of USP1/UAF1: Pilot qHTS (AID 504865); also: nearly all actives have a fitted effect of over 35% in size
RUN_PARAMETERS: purified USP1/UAF1, Ub-rhodamine cleavage fluorescence; series mostly up to 114 µM
Inconclusive results are not listed. Active and inactive are the calls of the source. The call rests on the fitted dose curve; in most records, active means well fitted inhibition curve with a large enough effect; inconclusive means small, poorly fitted or top-dose-only effect; inactive means flat fitted curve, though single readings scatter.
Outcomes: Yes = active, No = inactive

[[record]]
compound = "OCC(O)CO"
discrete_label = "No"

[[record]]
compound = "COC(=O)C(CN)c1c[nH]c2ccc(OC)cc12 (centres undefined)"
discrete_label = "No"

[[record]]
compound = "FCOC(C(F)(F)F)C(F)(F)F"
discrete_label = "No"

[[record]]
compound = "Cc1cc(-c2ccc(N=Nc3c(S(=O)(=O)O)cc4cc(S(=O)(=O)O)cc(N)c4c3O)c(C)c2)ccc1N=Nc1c(S(=O)(=O)O)cc2cc(S(=O)(=O)O)cc(N)c2c1O"
discrete_label = "Yes"

[[record]]
compound = "CC(C)CCC[C@@H](C)[C@H]1CC[C@H]2[C@@H]3CC=C4C[C@@H](O)CC[C@]4(C)[C@H]3CC[C@]12C"
discrete_label = "No"

[[record]]
compound = "Cn1c(O)c(N=NC(N)=S)c2ccccc21"
discrete_label = "No"

[[record]]
compound = "O=C1CCC(=O)N1CO"
discrete_label = "No"

[[record]]
compound = "NC(=O)CC[C@@H]1NC(=O)[C@H](Cc2ccccc2)NC(=O)[C@H](Cc2ccc(O)cc2)NC(=O)[C@@H](N)CSSC[C@@H](C(=O)N2CCC[C@H]2C(=O)N[C@@H](CCCN=C(N)N)C(=O)NCC(N)=O)NC(=O)[C@H](CC(N)=O)NC1=O"
discrete_label = "No"

[[record]]
compound = "O=C(O)CCCC/C=C(\\c1ccccc1)c1cccnc1"
discrete_label = "No"


====

Tested on: CP315
MEASUREMENT_NOTES: qHTS profiling for inhibitors of Plasmodium falciparum proliferation (AID 504749); also: nearly all actives have a fitted effect of over 60% in size
RUN_PARAMETERS: P. falciparum in erythrocytes, SYBR Green DNA, 72 h; series mostly up to 28.7 µM
Inconclusive results are not listed. Active and inactive are the calls of the source. The call rests on the fitted dose curve; in most records, active means well fitted inhibition curve with a large enough effect; inconclusive means small, poorly fitted or top-dose-only effect; inactive means flat fitted curve, though single readings scatter.
Outcomes: active, inactive

[[record]]
compound = "CC(=O)Nc1ccc(OC(=O)c2ccccc2O)cc1"
discrete_label = "inactive"

[[record]]
compound = "CC(C)O"
discrete_label = "inactive"

[[record]]
compound = "CC12CCC(C1)C(C)(C)C2=O (configuration not stated)"
discrete_label = "inactive"

[[record]]
compound = "O=C(NNCS(=O)(=O)O)c1ccncc1"
discrete_label = "inactive"

[[record]]
compound = "CC/C(=C(/CC)c1ccc(OP(=O)(O)O)cc1)c1ccc(OP(=O)(O)O)cc1"
discrete_label = "inactive"

[[record]]
compound = "CC(=O)Oc1cc(C(F)(F)F)ccc1C(=O)O"
discrete_label = "inactive"

[[record]]
compound = "CC(C)c1nc(N(C)S(C)(=O)=O)nc(-c2ccc(F)cc2)c1/C=C/C(O)CC(O)CC(=O)O (configuration not stated)"
discrete_label = "inactive"

[[record]]
compound = "CC(CNC(=O)c1cccnc1)NC(=O)c1cccnc1 (configuration not stated)"
discrete_label = "inactive"

[[record]]
compound = "CN=C1C=CC(=C(c2ccc(N(C)C)cc2)c2ccc(N(C)C)cc2)C=C1"
discrete_label = "active"

[[record]]
compound = "CC(=O)NCCCS(=O)(=O)O"
discrete_label = "inactive"

[[record]]
compound = "O=c1[nH]c(=O)n([C@H]2C[C@H](O)[C@@H](CO)O2)cc1/C=C/Br"
discrete_label = "inactive"

[[record]]
compound = "CCCc1ccc(C(=O)O)cc1"
discrete_label = "inactive"


====

System: CP262
MEASUREMENT_NOTES: qHTS profiling for inhibitors of Plasmodium falciparum proliferation (AID 504749); also: nearly all actives have a fitted effect of over 60% in size; also: potency is read from the fitted curve at half-maximal effect
RUN_PARAMETERS: P. falciparum in erythrocytes, SYBR Green DNA, 72 h; series mostly up to 28.7 µM
Records with an inconclusive call do not appear. Calls of active or inactive are those of the source. The call rests on the fitted dose curve; in most records, active means well fitted inhibition curve with a large enough effect; inconclusive means small, poorly fitted or top-dose-only effect; inactive means flat fitted curve, though single readings scatter.
READOUT_KIND: Potency

[[record]]
molecule = "CN(CCO)CC(O)Cn1cnc2c1c(=O)n(C)c(=O)n2C (stereo unspecified) (tested in a mixture with another compound)"
tgt = "CP262"
reading = "inactive"

[[record]]
molecule = "O=C(O)Cc1cc(I)c(Oc2ccc(O)c(I)c2)c(I)c1"
tgt = "CP262"
reading = "inactive"

[[record]]
molecule = "C[C@H](O)CN(C)C"
tgt = "CP262"
reading = "inactive"

[[record]]
molecule = "N=C(N)c1ccc(/C=C/c2ccc(C(=N)N)cc2O)cc1"
tgt = "CP262"
reading = "1350 nM (active)"

[[record]]
molecule = "CC(=O)Nc1ccc(OC(=O)c2ccccc2O)cc1"
tgt = "CP262"
reading = "inactive"

[[record]]
molecule = "CNC(=O)OCc1cccc(COC(=O)NC)n1"
tgt = "CP262"
reading = "inactive"


====

MEASUREMENT_NOTES: Drug repurposing screens with cells derived from glioblastoma tumor samples (AID 1345199); also: nearly all actives have a fitted effect of over 40% in size
RUN_PARAMETERS: GBM patient neurospheres viability, ATP luminescence, 48 h; at 46.1 µM (top of the series); tumour line C
Inconclusive results are not listed.
Heads up, the class ranges for activity, negative = cell killing are lower level (below -20%), middle level (-20% to below -10%), upper level (-10% or more)

[[record]]
compound = "CC(O)[C@@H]1NC(=O)[C@H](Cc2ccccc2)NC(=O)[C@H](C(C)O)NC(=O)[C@H](CCCCN)NC(=O)[C@H](Cc2c[nH]c3ccccc23)NC(=O)[C@H](Cc2ccccc2)NC(=O)[C@H](Cc2ccccc2)NC(=O)[C@H](CC(N)=O)NC(=O)[C@H](CCCCN)NC(=O)[C@@H](NC(=O)CNC(=O)[C@H](C)N)CSSC[C@@H](C(=O)O)NC(=O)[C@H](CO)NC1=O (stereo not given in full)"
discrete_label = "upper level"

[[record]]
compound = "Cc1ncc(C[n+]2csc(CCOP(=O)(O)OP(=O)(O)O)c2C)c(N)n1"
discrete_label = "upper level"

[[record]]
compound = "COc1ccc2cc([C@H](C)CO)ccc2c1"
discrete_label = "lower level"

[[record]]
compound = "CCc1ccc(S(=O)(=O)O)cc1"
discrete_label = "lower level"

[[record]]
compound = "O=P(O)(O)OP(=O)(O)OP(=O)(O)O"
discrete_label = "upper level"

[[record]]
compound = "CC1C(=O)CC2C3(C)CCC2(C(C)C(=O)O)C(=O)C13 (stereo not given)"
discrete_label = "upper level"

[[record]]
compound = "O=C(O)CCCC/C=C(\\c1ccccc1)c1cccnc1"
discrete_label = "middle level"

[[record]]
compound = "CCCCC[C@H](O)/C=C/[C@@H]1[C@H]2C/C(=C/CCCC(=O)O)O[C@H]2C[C@H]1O"
discrete_label = "middle level"

[[record]]
compound = "CCOC(=O)[C@H](CS)NCCN[C@@H](CS)C(=O)OCC"
discrete_label = "middle level"

[[record]]
compound = "C=CC[N+]1([C@H]2C[C@H]3[C@@H]4CC[C@H]5C[C@H](O)[C@@H](N6CCOCC6)C[C@]5(C)[C@H]4CC[C@]3(C)[C@H]2OC(C)=O)CCCC1"
discrete_label = "lower level"

[[record]]
compound = "CCOc1ccc(NC(=S)Nc2ccc(OCC)cc2)cc1"
discrete_label = "lower level"

[[record]]
compound = "CCCC(=O)O"
discrete_label = "lower level"

[[record]]
compound = "NCC(O)CC(=O)O (stereo not given)"
discrete_label = "upper level"

[[record]]
compound = "CC(=NCc1ccccc1)c1ccccc1O"
discrete_label = "upper level"

[[record]]
compound = "c1ccc2c(c1)OCC(CN1CCCCC1)O2 (stereo not given)"
discrete_label = "middle level"

[[record]]
compound = "Nc1nccs1"
discrete_label = "lower level"

[[record]]
compound = "CC(C)(C)NCC(O)CSc1nc(-c2ccc(C(N)=O)s2)cs1 (stereo not given)"
discrete_label = "middle level"

[[record]]
compound = "NC(=O)Oc1ccc(Cc2ccccc2)cc1"
discrete_label = "lower level"

